Listing of recorded normalized growth by entry.
- assay overview: chemical genetic growth profiling, strain panel (AID 1159580);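 also: tested at 20 µM; growth read once vehicle control cultures reached saturation at 30 °C; 1 = growth at the plate median or of vehicle wells; lower values mean less growth of the strain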
- measurement conditions: S. cerevisiae deletion strains, growth OD, locus YBR023C, strain chs3, stronger effect = lower value
The whole screen tested about 5,500 compounds, of which about 2,000 (36%) were called active. About 18% were inconclusive and are not listed. This is one part of the list.

{"columns": ["molecule", "normalized growth"],
 "data": [
  ["NC(Cc1ccc(F)cc1)C(=O)O (stereo unspecified)", 1.01],
  ["Cc1nc2ccccn2c(=O)c1CCN1CCC(C(=O)c2ccc(F)cc2)CC1", 0.986],
  ["N[C@H](Cc1cc(I)c(Oc2ccc(O)c(I)c2)c(I)c1)C(=O)O", 0.986],
  ["CN(C)CCC(c1ccc(Br)cc1)c1ccccn1 (stereo unspecified)", 0.993],
  ["CCCC(C(=O)OCCN(CC)CC)(c1ccccc1)c1ccccc1", 1],
  ["N[C@H](Cc1ccccc1)C(=O)O", 1.01]
]}
